Parameter: normalized RNA/DNA level without ligand (log10). Scope: all listed entries.
B1: library; a variant is named by its letters at N, in order (parent)
chain: GCUGUCACCGGUGUAUUACCCUAGUGGUCGACCGGUCUGAUGAGUCUNNNNNNAGACGAAACAGC

- Variants of: B1
- EXPERIMENT DESCRIPTION: normalized RNA/DNA level without ligand (relative to sTRSVctl = 100) (log10 (% of sTRSVctl)); ligand: hypoxanthine (xanthine aptamer); higher = less ribozyme self-cleavage, higher mRNA level
- CONDITION INFO: HEK293T, reporter: mCherry (pCS4076), ligand present: no
Form rule: numeric answer, no unit written next to it.

Example variants with recorded normalized RNA/DNA level without ligand (log10):
SEQUENCE CHANGE: ACAGCA
REPORTED MEASUREMENT: 1.81
--
SEQUENCE CHANGE: UCCGCC
REPORTED MEASUREMENT: 1.77
--
SEQUENCE CHANGE: CCAAUG
REPORTED MEASUREMENT: 1.61

For the next question, use this variant.
Query: What value of normalized RNA/DNA level without ligand (log10) has been recorded for this entry: `AGUGCC`
Response: 1.84

Values compiled from the supplement of paper PMC6757056.
